# Measurement Target: human mAChR M4 (Homo sapiens)
# Sequence (P08173 1-479): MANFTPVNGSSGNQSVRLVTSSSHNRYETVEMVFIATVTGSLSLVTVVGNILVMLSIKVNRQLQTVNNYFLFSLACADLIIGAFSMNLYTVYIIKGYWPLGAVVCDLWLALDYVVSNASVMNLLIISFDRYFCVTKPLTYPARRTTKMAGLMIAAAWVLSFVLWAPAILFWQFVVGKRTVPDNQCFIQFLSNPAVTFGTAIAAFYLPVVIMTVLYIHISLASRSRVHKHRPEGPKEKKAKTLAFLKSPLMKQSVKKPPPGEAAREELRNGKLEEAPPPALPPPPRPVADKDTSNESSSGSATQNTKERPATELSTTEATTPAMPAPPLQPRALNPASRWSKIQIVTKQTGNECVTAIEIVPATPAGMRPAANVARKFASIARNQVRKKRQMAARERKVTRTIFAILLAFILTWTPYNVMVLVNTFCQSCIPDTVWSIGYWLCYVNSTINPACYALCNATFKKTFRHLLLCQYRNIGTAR
# Assay Info: mAChR M4 cell-based functional assay: calcium mobilization (Fluo-4, FDSS), potentiation of EC20 acetylcholine response in hM4-Gqi5 CHO-K1 cells
# Test Settings: potentiation of EC20 acetylcholine response, calcium mobilization, human M4
Result Type: pEC50
Kindly note that pEC50 refers to -log10 of the concentration in mol/L and answer with the value alone.

// worked examples, pEC50 included
Cc1cc(=O)n2nc(N3CCc4ncc(NCC5CCCOC5)cc4C3)c(C)c(C)c2n1 (centres unmarked) ... 6.21
Cc1c(N2CCc3ncc(-c4ccc(C(F)(F)F)nc4)cc3C2)nn2c(=O)cc(C(F)F)nc2c1C ... 6.48
COc1cnccc1-c1cnc2c(c1)CN(c1nn3c(=O)ccnc3c(C)c1C)CC2 ... 6.68
Cc1cc(=O)n2nc(N3CCc4ncc(N5CC6CC5CO6)cc4C3)c(C)cc2n1 (centres unmarked) ... 6.07
Cc1ccc(-c2cnc3c(c2)CN(c2nn4c(=O)cc(C)nc4c(C)c2C)CC3)cn1 ... 6.84

Tell me the measured pEC50 of Cc1cc2nc(C)c(Cl)c(=O)n2nc1N1CCc2ncc(Nc3ccncc3F)cc2C1 , please.
9.00

Tell me the measured pEC50 of COc1ccc(-c2cnc3c(c2)CN(c2nn4c(=O)cc(C)nc4c(C)c2C)CC3)cc1F , please.
6.22

Tell me the measured pEC50 of Cc1ccc(-c2cnc3c(c2)CN(c2nn4c(=O)c(C)c(C)nc4cc2C)CC3)cn1 , please.
6.68

Tell me the measured pEC50 of Cc1cc(=O)n2nc(N3CCc4ncc(N5CC6CC5CO6)cc4C3)c(C)c(C)c2n1 (centres unmarked) , please.
5.87

Tell me the measured pEC50 of COCc1cc(=O)n2nc(N3CCc4ncc(-c5cc(F)ccc5C)cc4C3)c(C)c(C)c2n1 , please.
6.87

Tell me the measured pEC50 of Cc1cc2nccc(=O)n2nc1N1CCc2ncc(-c3ccc(Cl)nn3)cc2C1 , please.
5.91

Tell me the measured pEC50 of Cc1c(N2CCc3ncc(C(F)(F)F)cc3C2)nn2c(=O)cc(C(F)F)nc2c1C , please.
7.42

====

# Measurement Target: human mAChR M4 (Homo sapiens)
# Assay Info: mAChR M4 cell-based functional assay: calcium mobilization (Fluo-4, FDSS), potentiation of EC20 acetylcholine response in hM4-Gqi5 CHO-K1 cells
# Test Settings: potentiation of EC20 acetylcholine response, calcium mobilization, human M4
Result Type: pEC50
Kindly note that pEC50 refers to -log10 of the concentration in mol/L and answer with the value alone.

Cc1cc(=O)n2nc(N3CCc4ncc(-c5ccccc5C(F)(F)F)cc4C3)c(C)c(C)c2n1 ... 5.95

Tell me the measured pEC50 of Cc1ccc(-c2cnc3c(c2)CN(c2nn4c(=O)cc(C5CC5)nc4cc2C)CC3)cn1 , please.
7.18

====

// reported Emax at 30 µM for each item listed
# Measurement Target: human mAChR M4 (Homo sapiens, UniProt P08173)
# Construct: expressed in transfected cells; host or cells: CHO-K1 (American Type Culture Collection), stably expressing hM4 and Gqi5
# Assay Info: mAChR M4 cell-based functional assay: calcium mobilization (Fluo-4, FDSS), potentiation of EC20 acetylcholine response in hM4-Gqi5 CHO-K1 cells
# Test Settings: CHO-K1, % ACh maximum at 30 μM; human M4
Express your answer in %, writing the number without its unit.

// worked examples, Emax at 30 µM included
Cc1cc(=O)n2nc(N3CCc4ncc(N5C[C@@H](C)O[C@@H](C)C5)cc4C3)c(C)c(C)c2n1 ... 76
COCc1cc(=O)n2nc(N3CCc4ncc(-c5ccc(C)nc5)cc4C3)c(C)c(C)c2n1 ... 95
Cc1c(N2CCc3ncc(-c4cnn(C5COC5)c4)cc3C2)nn2c(=O)cc(C(F)F)nc2c1C ... 88
CCn1cc(-c2cnc3c(c2)CN(c2nn4c(=O)cc(C(F)F)nc4c(C)c2C)CC3)cn1 ... 86
COc1ccncc1-c1cnc2c(c1)CN(c1nn3c(=O)cc(C(F)F)nc3c(C)c1C)CC2 ... 77
Cc1cc2nc(C(F)F)cc(=O)n2nc1N1CCc2ncc(-n3cccn3)cc2C1 ... 87
Cc1cc(=O)n2nc(N3CCc4ncc(-c5cn6ccnc6cc5C)cc4C3)c(C)cc2n1 ... 60
COc1ccc(F)c(Nc2cnc3c(c2)CN(c2nn4c(=O)ccnc4cc2C)CC3)c1 ... 94
Cc1cc2nccc(=O)n2nc1N1CCc2ncc(N3CCOC(c4ccccc4)C3)cc2C1 (stereo in doubt) [Compound 2-73] ... 87

Tell me the measured Emax at 30 µM of Cc1ncc(-c2cnc3c(c2)CN(c2nn4c(=O)ccnc4cc2C)CC3)o1 , please.
87

====

# Measurement Target: human mAChR M4 (Homo sapiens)
# Construct: expressed in transfected cells; host or cells: CHO-K1 (American Type Culture Collection), stably expressing hM4 and Gqi5
# Assay Info: mAChR M4 cell-based functional assay: calcium mobilization (Fluo-4, FDSS), potentiation of EC20 acetylcholine response in hM4-Gqi5 CHO-K1 cells
# Test Settings: CHO-K1, % ACh maximum at 30 μM; human M4
Result Type: Emax at 30 µM (%)
Express your answer in %, writing the number without its unit.

// worked examples, Emax at 30 µM included
Cc1cc2nccc(=O)n2nc1N1CCc2ncc(Nc3cccc(OC(F)F)c3)cc2C1 [Compound 2-71] ... 97
Cc1cc2nccc(=O)n2nc1N1CCc2ncc(-c3cccc4[nH]cc(C)c34)cc2C1 [Compound 1-435] ... 51
Cc1ccc(-c2cnc3c(c2)CN(c2nn4c(=O)ccnc4cc2C)CC3)nc1 [Compound 1-351] ... 55

Tell me the measured Emax at 30 µM of Cc1cc2nc(C)c(C)c(=O)n2nc1N1CCc2ncc(N3CCCn4nccc43)cc2C1 [Compound 2-13] , please.
82

Tell me the measured Emax at 30 µM of Cc1cc2ncc(Cl)c(=O)n2nc1N1CCc2ncc(-c3cn(C)nc3C)cc2C1 [Compound 1-11] , please.
92

Tell me the measured Emax at 30 µM of Cc1c(N2CCc3ncc(-c4ccnnc4)cc3C2)nn2c(=O)cc(C(F)F)nc2c1C [Compound 1-158] , please.
94

====

# Measurement Target: human mAChR M4 (Homo sapiens)
# Assay Info: mAChR M4 cell-based functional assay: calcium mobilization (Fluo-4, FDSS), potentiation of EC20 acetylcholine response in hM4-Gqi5 CHO-K1 cells
# Test Settings: potentiation of EC20 acetylcholine response, calcium mobilization, human M4
Result Type: EC50 (nM)
Express your answer in nM, writing the number without its unit.

// worked examples, EC50 included
Cc1ccccc1-c1cnc2c(c1)CN(c1nn3c(=O)ccnc3c(C)c1C)CC2 ... 74
Cc1cc(-c2cnc3c(c2)CN(c2nn4c(=O)cc(C)nc4c(C)c2C)CC3)ccn1 ... 124
Cc1cc2nccc(=O)n2nc1N1CCc2ncc(-c3c(C)nn(C)c3C)cc2C1 ... 746
Cc1cc(F)ncc1-c1cnc2c(c1)CN(c1nn3c(=O)ccnc3c(C)c1C)CC2 ... 68
COCc1cc(=O)n2nc(N3CCc4ncc(-c5cnccc5C)cc4C3)c(C)cc2n1 ... 136
Cc1c(N2CCc3ncc(C4CCCCC4)cc3C2)nn2c(=O)ccnc2c1C ... 95

Tell me the measured EC50 of Cc1cc2nccc(=O)n2nc1N1CCc2ncc(Nc3ccccc3F)cc2C1 , please.
19

Tell me the measured EC50 of Cc1cc2nc(C(F)F)cc(=O)n2nc1N1CCc2ncc(N3CCO[C@H](C)C3)cc2C1 , please.
209

Tell me the measured EC50 of Cc1ncc(-c2cnc3c(c2)CN(c2nn4c(=O)ccnc4cc2C)CC3)c(C)n1 , please.
1720

Tell me the measured EC50 of Cc1cc2nccc(=O)n2nc1N1CCc2ncc(NC(=O)C3CC3)cc2C1 , please.
1650

Tell me the measured EC50 of Cc1cc2nccc(=O)n2nc1N1CCc2ncc(Nc3cncc(C(F)(F)F)c3)cc2C1 , please.
747

Cited source for all entries: patent US20250101041A1
